Molecular target: Heat shock protein HSP 90-beta (Homo sapiens) (UniProt P08238)
Sequence (P08238 whole entry): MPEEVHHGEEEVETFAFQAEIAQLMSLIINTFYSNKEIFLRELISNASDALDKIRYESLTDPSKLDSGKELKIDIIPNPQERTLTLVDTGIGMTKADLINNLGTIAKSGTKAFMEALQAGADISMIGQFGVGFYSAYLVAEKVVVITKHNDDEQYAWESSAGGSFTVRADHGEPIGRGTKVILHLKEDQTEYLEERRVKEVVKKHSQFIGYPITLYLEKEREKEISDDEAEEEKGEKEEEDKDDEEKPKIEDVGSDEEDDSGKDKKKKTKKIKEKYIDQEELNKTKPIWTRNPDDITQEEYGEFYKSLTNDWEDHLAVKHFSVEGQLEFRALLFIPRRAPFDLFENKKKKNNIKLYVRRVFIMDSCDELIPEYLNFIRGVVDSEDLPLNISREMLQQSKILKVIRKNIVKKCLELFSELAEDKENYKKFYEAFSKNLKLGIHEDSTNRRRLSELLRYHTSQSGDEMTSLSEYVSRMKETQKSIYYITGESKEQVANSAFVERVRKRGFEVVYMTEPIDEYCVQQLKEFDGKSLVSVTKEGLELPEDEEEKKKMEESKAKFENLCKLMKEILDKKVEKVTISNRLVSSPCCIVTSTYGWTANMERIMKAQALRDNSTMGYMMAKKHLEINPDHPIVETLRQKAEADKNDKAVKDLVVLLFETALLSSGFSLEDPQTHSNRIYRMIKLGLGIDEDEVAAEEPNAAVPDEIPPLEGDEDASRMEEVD
Assay: Inhibition of HSP90 in human MCF7 cells assessed as degradation of Hsp70 protein up to 50 uM after 48 hrs by Western blotting
Type: cell-based
Activity calls are given as the source filed them. The rule behind the calls is not given here.
measured metric: Activity

compound="CO[C@@H]1[C@@H](OC(N)=O)[C@@H](O)[C@H](Oc2ccc3c(O)c(NC(=O)c4ccc(O)c(CC=C(C)C)c4)c(=O)oc3c2C)OC1(C)C [NOVOBIOCIN]" assayed_target="Heat shock protein HSP 90-beta (Homo sapiens) (UniProt P08238)" measured_metric=Activity experimental_value=inactive
compound=CO[C@@H]1[C@@H](O)[C@@H](O)[C@H](Oc2ccc3cc(NC(C)=O)c(=O)oc3c2)OC1(C)C assayed_target="Heat shock protein HSP 90-beta (Homo sapiens) (UniProt P08238)" measured_metric=Activity experimental_value=inactive
compound=COc1cccc(-c2cc(C(=O)Nc3cc4cc(OC)c(OC(C)=O)c(C)c4oc3=O)ccc2OC)c1 assayed_target="Heat shock protein HSP 90-beta (Homo sapiens) (UniProt P08238)" measured_metric=Activity experimental_value=inactive
compound=COc1cccc(-c2cc(C(=O)Nc3cc4ccc(O[C@@H]5OC(C)(C)[C@H](OC)[C@@H](O)[C@H]5O)c(OC)c4oc3=O)ccc2OC)c1 assayed_target="Heat shock protein HSP 90-beta (Homo sapiens) (UniProt P08238)" measured_metric=Activity experimental_value=inactive
